- ASSAY_REMARKS: protease stability score; higher = more stable; yeast display proteolysis, trypsin and chymotrypsin;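 further: relative to predicted unfolded state with 0 unfolded-like and 1 meaning tenfold more protease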
The threshold is inclusive: protease stability score of exactly 0.8 counts as MET; values below receive NOT MET.

Task item: Decide: is the reported value of protease stability score for DKEEHDVHNMWQHLVEVLLTGNEEAIHENLDPDAKLEVGDKRYHGRELVSEVWSRLGINVIQLDDMRPIGNKVHVETTTHFNGKTLEMRIDAHKVNGRWLSESLIIR equal to or greater than 0.8?
Reply: MET

Task item: And DENEQEARKAIEELIHNRETGDEQRMSELLDPHTRIDYNGVEVHGRHYLLKLLRRIDHSRFNLRRLDIQGEKIIMEGELELDVNGVKIRIKLTEIILKVNGRWILHSSRIE ?
Reply: MET

Task item: And HEEDERIEHFFELYKRSLKTGNEEIIEYLFDPHVRYEQGDWEVHGRTEFIEMLKHLRFHTVRLRDYRLIGDYVHLDIELEGRVGDKNLHVKSTLIALKVDGRWRIHTLEIE ?
Reply: NOT MET

Task item: And HEHEEMSELWLRIFERSVDTGDWNTLIELADPNVRQDYNGREYHGRESFVHTMREDIHRADHIEFHIDRFRVIGDKLDIDGTIIIRINGQTLIYRSHLHILKYDGRWIIKEVRFK ?
Reply: MET

Task item: And DELTTLAREFLRLIKEVLETGDERTMHELADPNYRIRIGDKLVHGWEQQSELIIRIRTELGMTVKDSRIEDSHVQGDKLVVRVRLDMIQGDKKDSVDRIVRVDKINGKWIMSEIELI ?
Reply: MET

Task item: And DEDERLEEEALRLLRHSLHTGDERIITELADPHARLEFNGREFHGREDFLRFIVHMRVRHEEEKSVRLQGDKVDVNWHMVVLFDGQLRRQDVRLILWKFNGRWHIKSIRIE ?
Reply: MET

Task item: And DEFRRDALETHEDEIRDYLTGDWKSSKHLADPHARFVVGDKHYHGWHEMVRLVKENQEKFGIDHSEFRIHDSHVQGNKVIMDVEIHLTFNGKKIHTRSTILLVKINGVWLNTEIHID ?
Reply: NOT MET

Task item: And SEDHDLVREVARLYIDAVKTGDEDLIRFLFDPHVRSEINGVQLHGWEEVFRFWQELRVHHIDLHSVHVEFQGDKAINRNEVHYNGEYGDKRNRYRLDLRIILHKIDGRWIVEEVHLITD ?
Reply: MET

Task item: And DDREKYLTKLMELFIEHWRTGDEEAFLEYFDPHVRIEHIFNGQETRRHGRELFSILLTHEWLFFKNVRIHWKRSEVQGEKTVIHMELHVGDKSLKVRIHLDVVDGRVRSVNIEIE ?
Reply: NOT MET

Task item: And SEDEEESEFAVRELSKIIKTGDPDRFHHLADPNMRFIYGDKREHGMESWVSHLHRLGIENVEVHIHDWSVFNGQVVIDGRINVNGREVNAEFVMRKIDGRWHITEVRER ?
Reply: NOT MET

Task item: And DEERHDAEEASREIMRSYETGDETEYLNLLDPHARMTVGDKEFHGREDILRWWHELNEKLGVDRIHLHLEHIRVINGVVESHVRLNVNGREHRVELLVYKVNGRWLIREMHFR ?
Reply: MET
